Procedure Details: inhibition of RSV-induced cytopathic effect – HEp-2 cells, primary 10 µM value included (AID 2391)
Conditions: at 10 µM, hits give high values
About 410 (0.13%) of roughly 310,000 compounds were called active. Another 2% or so got no clear call; they are omitted. The list is a sample of the results. Results with a measured potency or affinity are listed apart.
Observation Type: CPE inhibition (%)

Compound: CC(/C=N/NC(=O)c1cc(-c2ccc(C)o2)[nH]n1)=C\c1ccccc1
Observation Type: CPE inhibition
Recorded Result: 0.3

Compound: CCc1ccc(-c2cc(C(=O)N3N=C(C(F)F)CC3(O)C(F)F)c3ccccc3n2)cc1 (stereo not given)
Observation Type: CPE inhibition
Recorded Result: -3.61

Compound: Cc1ccc(NC(=O)c2c(F)cccc2Cl)cc1S(=O)(=O)N1CCOCC1
Observation Type: CPE inhibition
Recorded Result: 2.31

Compound: O=C(c1ccc(-c2ccccc2Cl)o1)N1CCN(S(=O)(=O)c2cccs2)CC1
Observation Type: CPE inhibition
Recorded Result: 0.24

Compound: CC(NC(=O)COc1ccc(Br)cc1)C(=O)O (stereo not given)
Observation Type: CPE inhibition
Recorded Result: 0.8

Compound: C/C(N)=C(/C#N)C(=O)COC(=O)CNS(=O)(=O)c1ccc(C)cc1
Observation Type: CPE inhibition
Recorded Result: 0.79

Compound: COc1ccc(C(=O)COc2ccc3c(C)cc(=O)oc3c2)cc1
Observation Type: CPE inhibition
Recorded Result: 1.42

Compound: Cc1cccc(-c2nc(CS(=O)CC(=O)NCCc3ccccc3)c(C)o2)c1 (stereo not given)
Observation Type: CPE inhibition
Recorded Result: 0.05

Compound: Cc1ccc(NC(=O)c2sc(N)nc2-c2ccc([N+](=O)[O-])cc2)cc1C
Observation Type: CPE inhibition
Recorded Result: -0.73

Compound: CCC(C)NC(=O)c1cc2cc3ccc(OC)cc3nc2o1 (stereo not given)
Observation Type: CPE inhibition
Recorded Result: 4.45

* * *

Procedure Details: inhibition of RSV-induced cytopathic effect – HEp-2 cells, primary 10 µM value included (AID 2391)
Conditions: at 10 µM, hits give high values
Hit rate of the full screen: of about 310,000 compounds, about 410 (0.13%) were called active. Roughly 2% stayed inconclusive and do not appear here. These entries were drawn from the full list. Results with a measured potency or affinity are listed apart.

Molecule: CN(CC(=O)Nc1ccc(Cl)c(Cl)c1)C(=O)CNC(=O)C1CCCCC1
CPE inhibition, %: -0.65
--
Molecule: N#CCCn1cc(CNC2CCC(O)CC2)c2ccccc21 (stereo unspecified)
CPE inhibition, %: 2.18
--
Molecule: Cc1ccc(N(CCC#N)C(=O)COC(=O)C2CCN(S(=O)(=O)c3ccc(C)c(C)c3)CC2)cc1
CPE inhibition, %: 3.94
--
Molecule: CCOC(=O)Cc1csc(NC(=O)C(NC(=O)C2CCCCC2)C(C)C)n1 (stereo unspecified)
CPE inhibition, %: 3.52
--
Molecule: O=C(Nc1cccc(Cl)c1)Nc1nnc(CC2=CCCCC2)s1
CPE inhibition, %: 5.11
--
Molecule: Nn1c(SCc2cccc3ccccc23)nnc1-c1ccco1
CPE inhibition, %: 0.35
--
Molecule: Cn1c(SCc2ccccc2)nnc1-c1ccco1
CPE inhibition, %: 3.37
--
Molecule: COc1cccc(CCc2nnc(CCC(=O)NC(C)c3c(C)nn(C)c3C)o2)c1 (stereo unspecified)
CPE inhibition, %: 0.66
--
Molecule: C=CCc1cc(Cl)ccc1OCCCNC(C)CC (stereo unspecified)
CPE inhibition, %: 0.05
--
Molecule: COc1ccc(N2CCN(CCNS(=O)(=O)c3ccc(C)cc3)CC2)cc1
CPE inhibition, %: -1.19
--
Molecule: O=C(Nc1ccc(F)c([N+](=O)[O-])c1)c1cccs1
CPE inhibition, %: 4.17

* * *

A collection of compounds and their measured CPE inhibition
Procedure Details: inhibition of RSV-induced cytopathic effect – HEp-2 cells, primary 10 µM value included (AID 2391)
Conditions: at 10 µM, hits give high values
Hit rate of the full screen: of about 310,000 compounds, about 410 (0.13%) were called active. Inconclusive results (about 2%) are left out. These entries were drawn from the full list. Potency and affinity values are given separately.

Compound: COc1ccc(C(=O)NN2CCCCC2)cc1OC
Measurement Units: %
CPE inhibition: 1.22

Compound: CC(C)c1ccc(Nc2ncccc2C(=O)O)cc1
Measurement Units: %
CPE inhibition: 10.4

Compound: COCCCNC(=O)CN(c1cc(Cl)ccc1OC)S(C)(=O)=O
Measurement Units: %
CPE inhibition: 0.7

Compound: CN(C)S(=O)(=O)c1ccc2c(c1)C(=NO)c1cc(S(=O)(=O)N(C)C)ccc1-2
Measurement Units: %
CPE inhibition: 2.67

Compound: COc1ccc(C(CNC(=O)Cc2ccccc2)N2CCCCC2)cc1 (configuration not stated)
Measurement Units: %
CPE inhibition: -0.35

Compound: Cc1cc(OC(C(=O)O)c2ccccc2)c2c(C)c(Cc3ccccc3)c(=O)oc2c1 (configuration not stated)
Measurement Units: %
CPE inhibition: 11.6

Compound: O=c1oc(/C=C/c2ccco2)nc2sc3c(c12)CCC3
Measurement Units: %
CPE inhibition: 2.04

Compound: CCC(C)c1ccccc1NC(=S)Nc1cccnc1 (configuration not stated)
Measurement Units: %
CPE inhibition: 3.94

Compound: CCC1=NN2C(=N)/C(=C\c3cccn3-c3ccc(C)cc3C)C(=O)N=C2S1
Measurement Units: %
CPE inhibition: 16.1

Compound: CCn1c(SCc2ccc(F)cc2)nnc1-c1nn(-c2ccccc2)ccc1=O
Measurement Units: %
CPE inhibition: 5.54

Compound: CC(C(=O)N1CCCC1)N1CCN(S(=O)(=O)c2ccc(C(C)(C)C)cc2)CC1 (configuration not stated)
Measurement Units: %
CPE inhibition: 0.2

Compound: Cc1[nH]c(C)c(S(=O)(=O)N2CCN(c3cccc(C(F)(F)F)c3)CC2)c1C(=O)N1CCCC1
Measurement Units: %
CPE inhibition: 2.4

Compound: Cc1ccc(Nc2nc(CSc3nnc(-c4ccncc4)n3C)cs2)cc1
Measurement Units: %
CPE inhibition: 1.07

Compound: C=Cn1cc[n+](CC(=O)c2cccs2)c1
Measurement Units: %
CPE inhibition: 0.58

Compound: CCOC(=O)c1sc(NS(=O)(=O)c2ccc(F)cc2)nc1C
Measurement Units: %
CPE inhibition: -0.12

Compound: CN(Cc1ccccc1)C(=O)CN1C(=O)c2ccc([N+](=O)[O-])cc2C1=O
Measurement Units: %
CPE inhibition: 1.1

Compound: Cc1ccc(C(=O)N2CCN3C(=O)c4ccccc4C23c2ccccc2)cc1 (configuration not stated)
Measurement Units: %
CPE inhibition: 3.84

Compound: Nc1c(-c2cccs2)cnc2c(-c3ccc(F)cc3)cnn12
Measurement Units: %
CPE inhibition: 10.8

Compound: Cc1nnc(SCC(=O)N(C2CCCCC2)C2CCS(=O)(=O)C2)n1N (configuration not stated)
Measurement Units: %
CPE inhibition: -1.53

Compound: COc1ccc(N2CCN(c3nc4c(c(=O)n(C)c(=O)n4C)n3CCCc3ccccc3)CC2)cc1
Measurement Units: %
CPE inhibition: -1.29

Compound: CCn1c(SC)nnc1-c1nn(-c2ccccc2)ccc1=O
Measurement Units: %
CPE inhibition: 3.93

Compound: O=C(c1ccccc1)c1cc([N+](=O)[O-])ccc1N1CCCC1
Measurement Units: %
CPE inhibition: 3.67

* * *

Procedure Details: inhibition of RSV-induced cytopathic effect – HEp-2 cells, primary 10 µM value included (AID 2391)
Conditions: at 10 µM, hits give high values
Screen size: about 310,000 compounds; about 410 (0.13%) were called active. Roughly 2% stayed inconclusive and do not appear here. Only a sample is shown. Measured potencies and affinities stand elsewhere.
Observation Type: CPE inhibition (%)

Compound: COc1ccc2oc(C(=O)NCCC(C)C)c(C)c2c1
Recorded Result: 3.36

Compound: COc1ccc(C(=O)NCc2nc3ccccc3[nH]2)cc1OC
Recorded Result: 1.66

Compound: Cc1ccc(NC(=S)N2CCC(O)CC2)c(C)c1
Recorded Result: 3.11

Compound: Cc1ccc2[nH]ccc(=O)c2c1
Recorded Result: 4.4

Compound: CCCCCCSc1cccc(-c2nc3ccc(Cl)cn3c2NCc2ccccc2)c1
Recorded Result: -1.21

Compound: COc1ccc(Cn2nnnc2C(c2cccs2)N2CCOCC2)cc1 (stereo unspecified)
Recorded Result: 0.05

Compound: C/C(N)=C(/C#N)C(=O)CSc1nc2ccccc2c(=O)n1-c1ccc(C)c(Cl)c1
Recorded Result: 3.58

Compound: Cc1ccc(C(=O)N2CCN(c3ccc(NC(=O)c4cccs4)cc3)CC2)cc1
Recorded Result: 3.02

Compound: COc1cc(OC)c(OC)cc1/C=N/NC(=O)c1cccc(S(=O)(=O)N2CCOCC2)c1
Recorded Result: 0.2

Compound: COc1ccc(NC2=C(NC(C)=O)C(=O)c3ccccc3C2=O)cc1
Recorded Result: -0.06

Compound: CN(C)c1ccc(NC2=C(Cl)C(=O)c3ccccc3C2=O)cc1
Recorded Result: -2.87

# credit: PubChem BioAssay AID2391
